Target: GPR40 (Homo sapiens, UniProt O14842)
Sequence (O14842 whole entry): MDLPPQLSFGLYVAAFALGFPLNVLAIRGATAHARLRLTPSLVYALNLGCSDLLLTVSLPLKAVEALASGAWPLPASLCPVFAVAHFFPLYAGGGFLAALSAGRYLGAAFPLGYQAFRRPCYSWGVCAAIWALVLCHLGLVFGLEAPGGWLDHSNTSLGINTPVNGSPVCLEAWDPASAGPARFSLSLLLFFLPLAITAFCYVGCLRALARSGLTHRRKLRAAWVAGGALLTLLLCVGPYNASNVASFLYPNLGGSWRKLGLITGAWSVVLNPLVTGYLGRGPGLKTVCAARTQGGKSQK
Experiment: Cell-based aequorin assay (CHO cells stably transfected with GPR40 and aequorin)
Parameters: expressed in transfected cells
Conditions: activation of human GPR40, CHO cells, 0.01% HSA
Experimental: Briefly, the Aequorin assays were performed on doubly stable CHO cells expressing GPR40 and Aequorin DNA. […] The luminescence was recorded over a period of 20 seconds with a Microlumat luminometer (Berthold). […] Aequorin luminescence measurements were made using an EG&G Berthold 96-well luminometer, and the response was measured over a 20 second interval after cells and compounds were mixed. […]
Reported EC50 values for a set of compounds

COc1ccc(F)c(-c2ccc(COc3ccc4c(c3)[C@@H](CC(=O)O)CCC4)cc2C(C)(C)C)c1 (single isomer, unassigned) [Example 6] : 100 to 1000 nM
COc1ccc(F)c(-c2ccc(COc3ccc4c(c3)C[C@@H]4CC(=O)O)cc2C(C)(C)C)c1 (single isomer, unassigned) [Example 29] : 1000 to 10000 nM
COc1ccc(F)c(-c2ccc(COc3ccc4c(c3)[C@H]([C@@H](C)C(=O)O)CC4)cc2C(C)(C)C)c1 [Example 13] : 100 to 1000 nM
COc1ccc(F)c(-c2ccc(COc3ccc4c(c3)[C@@H](C(C)(C)C(=O)O)CC4)cc2[C@H]2CCCC2(C)C)c1 (single isomer, unassigned) [Example 21] : 100 to 1000 nM
CC[C@]1(CC(=O)O)CCc2ccc(OCc3ccc(-c4cc(OC)ccc4F)c([C@H]4CCCC4(C)C)c3)cc21 (single isomer, unassigned) [Example 42] : 100 to 1000 nM

Next, consider the following compound.
// lookup EC50 for COc1ccc(F)c(-c2ccc(COc3ccc4c(c3)[C@@H](C(C)(C)C(=O)O)CC4)cc2C2=CCCC2(C)C)c1 (single isomer, unassigned) [Example 11]
100 to 1000 nM

----------
Biological target: GPR40 (Homo sapiens)
Experiment: Cell-based aequorin assay (CHO cells stably transfected with GPR40 and aequorin)
Design: expressed in transfected cells
Conditions: activation of human GPR40, CHO cells, 0.01% HSA
Measured EC50 values are reported for all entries that follow.

Consider the compound COc1ccc(F)c(-c2ccc(COc3ccc4c(c3)[C@@H](CC(=O)O)CC4)cc2[C@H]2CCCC2(C)C)c1 (single isomer, unassigned) and give its measured EC50.
100 to 1000 nM

Would you kindly repeat that for COc1ccc(F)c(-c2ccc(COc3ccc4c(c3)[C@@H](C(C)C(=O)O)CC4)cc2C(C)(C)C)c1 (single isomer, unassigned) ?
100 to 1000 nM

Then this compound: COc1ccc(F)c(-c2ccc(COc3ccc4c(c3)[C@@H](CC(=O)O)C(C)(C)C4)cc2C2=CCCC2(C)C)c1 (single isomer, unassigned)
100 to 1000 nM

----------
Target: GPR40 (Homo sapiens, UniProt O14842)
Assay: Cell-based aequorin assay (CHO cells stably transfected with GPR40 and aequorin)
Parameters: expressed in transfected cells
Conditions: activation of human GPR40, CHO cells, 0.01% HSA
Measured EC50 of individual entries

I would be grateful if you could share the reported EC50 for COc1ccc(F)c(-c2ccc(COc3ccc4c(c3)C[C@H]4CC(=O)O)cc2C(C)(C)C)c1 (single isomer, unassigned) [Example 30] .
1 to 10 µM

How about COc1cc(-c2ccc(COc3ccc4c(c3)[C@@](C)(CC(=O)O)CC4)cc2[C@@H]2CCCC2(C)C)c(F)cn1 (single isomer, unassigned) [Example 20] ?
0.1 to 1 µM

Again, but for COc1cc(-c2ccc(COc3ccc4c(c3)[C@@H](CC(=O)O)CC4)cc2[C@H]2CCCC2(C)C)c(F)cn1 (single isomer, unassigned) [Example 23]
0.1 to 1 µM

Then this compound: COc1cccc(-c2ccc(COc3ccc4c(c3)[C@@H]([C@@H](C)C(=O)O)CC4)cc2C(C)(C)C)c1 (single isomer, unassigned) [Example 26]
1 to 10 µM

Same lookup for COc1cc(-c2ccc(COc3ccc4c(c3F)C(C)(CC(=O)O)CC4)cc2C(OC)C(C)(C)C)c(F)cn1 (stereo not drawn) [Example 41] , please.
1 to 10 µM

Follow-up item: COc1cc(-c2ccc(COc3ccc4c(c3)[C@H](CC(=O)O)CCC4)cc2[C@H]2CCCC2(C)C)c(F)cn1 (single isomer, unassigned) [Example 47]
1 to 10 µM

----------
Target: GPR40 (Homo sapiens)
Experiment: Cell-based aequorin assay (CHO cells stably transfected with GPR40 and aequorin)
Set-up: expressed in transfected cells
Details: activation of human GPR40, CHO cells, 0.01% HSA
pEC50: −log10 of the molar value.
Parameter: pEC50. Scope: all listed entries.

COc1ccc(F)c(-c2ccc(COc3ccc4c(c3)[C@H]([C@@H](C)C(=O)O)CC4)cc2C2=CCCC2(C)C)c1 : 6.00 to 7.00
COc1ccc(F)c(-c2ccc(COc3ccc4c(c3)[C@@H](CC(=O)O)CC4)cc2C(C)(C)C)c1 (single isomer, unassigned) : 5.00 to 6.00

// fetch GPR40 (Homo sapiens) pEC50 for COc1cc(-c2ccc(COc3ccc4c(c3F)C(C)(CC(=O)O)CC4)cc2C2CCCC2(C)C)c(F)cn1 (stereo not drawn)
6.00 to 7.00

Now the molecule CCCCOc1cc(COc2ccc3c(c2)[C@@H](CC(=O)O)CC3)ccc1-c1cc(OC)ccc1F (single isomer, unassigned)
6.00 to 7.00

Follow-up entry: COc1cc(-c2ccc(COc3ccc4c(c3)[C@@](C)(CC(=O)O)CCC4)cc2[C@H]2CCCC2(C)C)c(F)cn1 (single isomer, unassigned)
6.00 to 7.00

Same question, COc1cc(-c2ccc(COc3ccc4c(c3F)[C@@](C)(CC(=O)O)CC4)cc2[C@H]2CCCC2(C)C)c(F)cn1 (single isomer, unassigned) this time
6.00 to 7.00

----------
Collected pEC50 values appear next to each entry.
Biological target: GPR40 (Homo sapiens, UniProt O14842)
Assay: Cell-based aequorin assay (CHO cells stably transfected with GPR40 and aequorin)
Parameters: expressed in transfected cells
Conditions: activation of human GPR40, CHO cells, 0.01% HSA
Procedure: Briefly, the Aequorin assays were performed on doubly stable CHO cells expressing GPR40 and Aequorin DNA. […] The luminescence was recorded over a period of 20 seconds with a Microlumat luminometer (Berthold). […] Aequorin luminescence measurements were made using an EG&G Berthold 96-well luminometer, and the response was measured over a 20 second interval after cells and compounds were mixed. […]
pEC50: −log10 of the molar value.

These solved cases illustrate the format of a correct answer.
COc1ccc(F)c(-c2ccc(COc3ccc4c(c3)CC[C@@H]4CC(=O)O)cc2C(C)(C)C)c1 (single isomer, unassigned) [Example 31] : 5.00 to 6.00
COc1cc(-c2ccc(COc3ccc4c(c3)[C@](C)(CC(=O)O)CCC4)cc2[C@H]2CCCC2(C)C)c(F)cn1 (single isomer, unassigned) : 6.00 to 7.00
CC[C@]1(CC(=O)O)CCc2ccc(OCc3ccc(-c4cc(OC)ncc4F)c([C@H]4CCCC4(C)C)c3)cc21 (single isomer, unassigned) : 6.00 to 7.00
COc1ccc(F)c(-c2ccc(COc3ccc4c(c3)[C@@H](CC(=O)O)CC4)cc2[C@@H](OC)C(C)(C)C)c1 (single isomer, unassigned) : 6.00 to 7.00
COc1ccc(F)c(-c2cc(F)c(COc3ccc4c(c3)[C@@](C)(CC(=O)O)CC4)cc2[C@H]2CCCC2(C)C)c1 (single isomer, unassigned) : 7.00 to 8.00

Consider the record given below.
Quick check: pEC50 on GPR40 (Homo sapiens, UniProt O14842), item COc1cc(-c2ccc(COc3ccc4c(c3)[C@@H](CC(=O)O)CCC4)cc2[C@H]2CCCC2(C)C)c(F)cn1 (single isomer, unassigned) ?
6.00 to 7.00

----------
Target: GPR40 (Homo sapiens)
Assay: Cell-based aequorin assay (CHO cells stably transfected with GPR40 and aequorin)
Parameters: expressed in transfected cells
Conditions: activation of human GPR40, CHO cells, 0.01% HSA
pEC50: −log10 of the molar value.
Measured pEC50 of individual entries

Below, each entry is followed by its recorded pEC50 result.
COc1cc(-c2ccc(COc3ccc4c(c3)[C@@](C)(CC(=O)O)CC4)cc2[C@@H](OC)C(C)(C)C)c(F)cn1 (single isomer, unassigned) [Example 37] : 6.00 to 7.00
COc1cc(-c2cc(F)c(COc3ccc4c(c3)[C@@](C)(CC(=O)O)CC4)cc2[C@H]2CCCC2(C)C)c(F)cn1 (single isomer, unassigned) [Example 34] : 6.00 to 7.00
COc1cccc(-c2ccc(COc3ccc4c(c3)[C@@H](CC(=O)O)CC4)cc2C(C)(C)C)c1 (single isomer, unassigned) [Example 25] : 5.00 to 6.00
CCC(C)(C)[C@H](OC)c1cc(COc2ccc3c(c2)[C@@H]([C@@H](C)C(=O)O)CC3)ccc1-c1cc(OC)ccc1F (single isomer, unassigned) [Example 27] : 5.00 to 6.00
COc1ccc(F)c(-c2ccc(COc3ccc4c(c3)[C@@H](CC(=O)O)C4)cc2C(C)(C)C)c1 (single isomer, unassigned) [Example 4] : < 5.00
COc1ccc(F)c(-c2ccc(COc3ccc4c(c3)[C@@H](CC(=O)O)C(C)(C)C4)cc2C(C)(C)C)c1 (single isomer, unassigned) [Example 8] : 5.00 to 6.00
COc1ccc(F)c(-c2ccc(COc3ccc4c(c3)[C@](C)(CC(=O)O)CC4)cc2[C@H]2CCCC2(C)C)c1 (single isomer, unassigned) [Example 18] : 6.00 to 7.00
CC[C@]1(CC(=O)O)CCc2ccc(OCc3ccc(-c4cc(OC)ccc4F)c([C@@H](OC)C(C)(C)C)c3)cc21 (single isomer, unassigned) [Example 45] : 6.00 to 7.00

Quick one: pEC50 of COc1cc(-c2ccc(COc3ccc4c(c3F)[C@@](C)(CC(=O)O)CC4)cc2[C@@H](OC)C(C)(C)C)c(F)cn1 (single isomer, unassigned) [Example 39] ?
6.00 to 7.00

What about C=CC(C)(C)[C@H](O)c1cc(COc2ccc3c(c2)[C@@H]([C@@H](C)C(=O)O)CC3)ccc1-c1cc(OC)ccc1F (single isomer, unassigned) [Example 28] ?
5.00 to 6.00

Further, for COc1ccc(F)c(-c2ccc(COc3ccc4c(c3)[C@@](C)(CC(=O)O)CC4)cc2[C@@H]2CCCC2(C)C)c1 (single isomer, unassigned) [Example 19] ?
6.00 to 7.00

// query: COc1ccc(F)c(-c2c(F)cc(COc3ccc4c(c3)[C@@](C)(CC(=O)O)CC4)cc2[C@H]2CCCC2(C)C)c1 (single isomer, unassigned) [Example 35]
6.00 to 7.00
